assay.target: BZD (peripheral) (Rattus norvegicus, UniProt P16257)
Construct: containing 0.2 mg of cardiac membrane protein and the radioactive ligand; tissue CEREP (contract assay); host or cells: rat heart ventricular membranes
protocol.summary: radio-ligand binding competition, peripheral benzodiazepine receptor ([3H]PK 11195)
condition.summary: second round, individual EET isomers, 3 μM
recorded.endpoint: % Inhibition of Control Specific Binding (%)
Please give a number only; it is taken to be in %.

[ask] Using known records, supply % Inhibition of Control Specific Binding for CCCCC/C=C\C/C=C\CC1OC1C/C=C\CCCC(=O)O (stereo not shown) [8,9-EET]
[reply] 11

[ask] Using known records, supply % Inhibition of Control Specific Binding for CCCCC/C=C\C/C=C\C/C=C\CC1OC1CCCC(=O)O (stereo not shown) [5,6-EET]
[reply] 27

[ask] Using known records, supply % Inhibition of Control Specific Binding for CCCCC/C=C\C[C@H]1O[C@H]1C/C=C\C/C=C\CCCC(=O)O [11,12-EET]
[reply] 28

[ask] Using known records, supply % Inhibition of Control Specific Binding for CCCCCC1OC1C/C=C\C/C=C\C/C=C\CCCC(=O)O (stereo not shown) [14,15-EET]
[reply] 45
